Values compiled from paper PMC5540273.

Can you tell me %Inh for the items I'm about to list?
# Test system: CDK4-cyclinD1
# CONDITION INFO: concentration: 1 μM, replicates: in singlicate; n = 1;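 also: KINOMEscan kinase panel screen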
Respond numerically; units are % and should not be typed.

# input Identify measured %Inh corresponding to CC(=O)N1CCN(c2ccc(Nc3nccc(-c4sc(C(C)C)nc4-c4cccc(NS(=O)(=O)c5cccc(Cl)c5)c4)n3)cn2)CC1 [GSK1660437]
# output 79

# input Identify measured %Inh corresponding to CN1CCN(Cc2cccc(-c3ccc4c(Nc5ccc(Oc6ccccc6)cc5)ccnc4c3)c2)CC1 [GW578342]
# output 0

# input Identify measured %Inh corresponding to CSc1cccc2c(-c3ccncn3)c(-c3ccc(F)cc3)nn12 [GW514786]
# output 13

# input Identify measured %Inh corresponding to Cl.Cl.NCC(NCc1ccc(-c2ccnc3[nH]ccc23)s1)c1ccccc1 (centres unmarked) [GSK1321565]
# output 5

# input Identify measured %Inh corresponding to Cc1cccc(Nc2nc(N[C@H]3CCNC3)ncc2C(N)=O)c1.Cl [GSK2197149]
# output 0

# input Identify measured %Inh corresponding to COc1cc(Nc2ncc3c(C)nc(-c4cc5ccccc5[nH]4)n3n2)cc(OC)c1OC [GW869516]
# output 22

# input Identify measured %Inh corresponding to COc1ccc(Nc2nccc(N3CCC(NC(=O)Nc4cccc(OC)c4)C3)n2)cc1 (centres unmarked) [GSK1379742]
# output 0

# input Identify measured %Inh corresponding to COc1cccc(NC(=O)NC2CCN(c3ccnc(Nc4cc(OC)c(OC)c(OC)c4)n3)C2)c1 (centres unmarked) [GSK1379763]
# output 0

# input Identify measured %Inh corresponding to "CC(=O)Nc1nc2cnc(Nc3cc(NC(=O)c4cccc(C5(C#N)CC5)c4Cl)ccc3C)nc2s1"
# output 0

# input Identify measured %Inh corresponding to Clc1ccc(-c2nn3ncccc3c2-c2ccnc(Nc3ccc4c(c3)OCCO4)n2)cc1 [GW829116]
# output 0

# input Identify measured %Inh corresponding to O=c1[nH]cc(-c2ccc(N3CCOCC3)cc2)c2sc(-c3cn[nH]c3)cc12 [GSK2276055]
# output 0

# input Identify measured %Inh corresponding to COc1ccc(Nc2nccc(NCCNC(=O)c3cc4ccccc4s3)n2)cc1 [GSK1379896]
# output 0

# input Identify measured %Inh corresponding to c1ccc(-c2cnc3nccnn23)cc1 [AH20685]
# output 0

# input Identify measured %Inh corresponding to CCn1c(-c2nonc2N)nc2c(C#CC(C)(C)O)ncc(OCCCCN)c21.O=C(O)C(F)(F)F.O=C(O)C(F)(F)F [GSK507274]
# output 0

# input Identify measured %Inh corresponding to COc1cccc(-c2ccc3c(NC(=O)C4CC4)n[nH]c3n2)c1 [SB-710903]
# output 61

# input Identify measured %Inh corresponding to "COc1cccc(C(=O)Nc2cccc(Oc3ccc4nc(NC(=O)C5CC5)cn4n3)c2)c1"
# output 1

# input Identify measured %Inh corresponding to Cc1ccc(C(=O)Nc2ccc(Nc3ccnc4cc(-c5nccs5)ccc34)cc2O)cc1.Cl [GW494702]
# output 39

###

# Test system: ACVR1
# CONDITION INFO: concentration: 1 μM, replicates: in singlicate; n = 1
METRIC NAME: %Inh (%)
Respond numerically; units are % and should not be typed.

# input Identify measured %Inh corresponding to Cl.Cl.NCC(C(=O)Nc1cc(Br)c(-c2ccnc3[nH]ccc23)s1)c1ccccc1 (stereo not drawn) [GSK1269851]
# output 47

# input Identify measured %Inh corresponding to Fc1ccc(-c2ncn(C3CCNCC3)c2-c2ccnc(Oc3ccc(-c4ccccc4)cc3)n2)cc1 [SB-245391]
# output 0

# input Identify measured %Inh corresponding to COc1ccc(Nc2nccc(NCCNC(=O)c3cc4ccccc4s3)n2)cc1 [GSK1379896]
# output 0

# input Identify measured %Inh corresponding to O=C(NC1CCN(c2ccnc(Nc3ccc(F)cc3)n2)C1)c1cc2ccccc2s1 (stereo not drawn) [GSK1379716]
# output 0

# input Identify measured %Inh corresponding to Cl.c1ccc(-c2ccc3c(Nc4ccc5[nH]ncc5c4)ccnc3c2)nc1 [GW440137]
# output 71

# input Identify measured %Inh corresponding to "Cc1cccc(NC(=O)Nc2ccc(Oc3ncnc4ccn(C)c34)cc2)c1"
# output 4

# input Identify measured %Inh corresponding to COc1cc(Nc2nccc(N3CCC(NC(=O)Nc4cccc(C(C)=O)c4)C3)n2)cc(OC)c1OC (stereo not drawn) [GSK1379753]
# output 0

# input Identify measured %Inh corresponding to COc1ccc(Nc2nccc(N3CCC(NC(=O)Nc4cccc(OC)c4)C3)n2)cc1 (stereo not drawn) [GSK1379742]
# output 7

# input Identify measured %Inh corresponding to Nc1ncc(-c2ccc3nccc(-c4ccncc4)c3c2)cc1S(=O)(=O)N1CCOCC1 [GSK1627798]
# output 0
